target: WT CBL-B (36-427) (Homo sapiens); construct: N-terminal biotinylated WT CBL-B (36-427) and C-CBL (46-435) were captured on a streptavidin (SA) coated sensor chip; test: Surface Plasmon Resonance (SPR) assay, binding affinity and kinetics, CBL-B; details: SPR at 10° C., biotinylated WT CBL-B (36-427) on streptavidin chip; geometric mean; read-out: CBL-B SPR Kd (nM) GMean
Sequence (Q13191 36-427): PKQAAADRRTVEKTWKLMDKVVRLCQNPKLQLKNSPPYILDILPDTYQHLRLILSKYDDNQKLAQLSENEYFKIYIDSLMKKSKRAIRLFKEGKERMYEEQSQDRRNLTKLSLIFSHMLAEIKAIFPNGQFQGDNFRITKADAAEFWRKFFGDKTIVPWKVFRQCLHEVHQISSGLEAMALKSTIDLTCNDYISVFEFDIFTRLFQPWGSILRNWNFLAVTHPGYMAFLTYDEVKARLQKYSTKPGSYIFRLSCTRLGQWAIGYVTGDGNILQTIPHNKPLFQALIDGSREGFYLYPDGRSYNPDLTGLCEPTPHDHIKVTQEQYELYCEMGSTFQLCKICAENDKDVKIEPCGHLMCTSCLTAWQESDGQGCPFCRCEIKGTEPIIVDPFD
experimental_endpoint: Kd

Return the recorded Kd value; entry: C[C@H](NC1CCC1)c1nc(C(F)(F)F)cc2c(-c3cccc(C4(Cc5nncn5C)COC4)c3)n[nH]c12 [Example F1]
0.7 nM

Determine from records and report Kd for CCNC(C)c1nc(C(F)(F)F)cc2c(-c3cccc(C4(Cc5nncn5C)COC4)c3)n[nH]c12 (single isomer, unassigned) [Example C84]
5.8 nM

// fetch Kd given entry CC(NC1CC(F)(F)C1)c1nc(C(F)(F)F)cc2c(-c3cccc(C4(Cc5nncn5C)COC4)c3)n[nH]c12 (single isomer, unassigned) [Example C93]
2.3 nM
